// data source = patent US8735601B2

Φ2 (fluorescence quantum yield): recorded values
experiment: Measurement of fluorescence quantum yield (Rhodamine B in ethanol as reference); assay type: physicochemical; settings: solvent DCM
PROPERTY_LABEL: Φ2 (fluorescence quantum yield)

compound="CCN1/C(=C/C=C/C(N)=C/C2=[N+](CC)c3ccccc3C2(C)C)C(C)(C)c2ccccc21 [Dye IIa]" property_label="Φ2 (fluorescence quantum yield)" test_value=0.032
compound="CCN(CC)C(=C\\C1=[N+](CC)c2ccccc2C1(C)C)/C=C/C=C1/N(CC)c2ccccc2C1(C)C [Dye IId]" property_label="Φ2 (fluorescence quantum yield)" test_value=0.085
compound="CCN1/C(=C/C=C/C(=C/C2=[N+](CC)c3ccccc3C2(C)C)NCCO)C(C)(C)c2ccccc21 [Dye IIb]" property_label="Φ2 (fluorescence quantum yield)" test_value=0.100
compound="CCN1/C(=C/C=C/C(=C/C2=[N+](CC)c3ccccc3C2(C)C)N(CCO)CCO)C(C)(C)c2ccccc21 [Dye IIc]" property_label="Φ2 (fluorescence quantum yield)" test_value=0.061
compound="CCN1/C(=C/C=C/C(=C/C2=[N+](CC)c3ccccc3C2(C)C)NCc2ccccc2)C(C)(C)c2ccccc21 [Dye IIe]" property_label="Φ2 (fluorescence quantum yield)" test_value=0.075
compound="CCN1/C(=C/C=C/C(=C/C2=[N+](CC)c3ccccc3C2(C)C)Nc2ccccc2)C(C)(C)c2ccccc21 [Dye IIg]" property_label="Φ2 (fluorescence quantum yield)" test_value=0.055
compound="CCN1/C(=C/C=C/C(=C/C2=[N+](CC)c3ccccc3C2(C)C)N(Cc2ccccc2)Cc2ccccc2)C(C)(C)c2ccccc21 [Dye IIf]" property_label="Φ2 (fluorescence quantum yield)" test_value=0.105

* * *

Listed molecules paired with reported Δλ1
experiment: Absorption and emission spectra of dyes in different solvents; assay type: physicochemical; set-up: key: Stokes shift in nm; conditions: Stokes shift to absorption peak 1; solvent Methanol
PROPERTY_LABEL: Δλ1

molecule="CCN(CC)C(=C\\C1=[N+](CC)c2ccccc2C1(C)C)/C=C/C=C1/N(CC)c2ccccc2C1(C)C [Dye IId]" test_value=96
molecule="CCN1/C(=C/C=C/C(=C/C2=[N+](CC)c3ccccc3C2(C)C)N(Cc2ccccc2)Cc2ccccc2)C(C)(C)c2ccccc21 [Dye IIf]" test_value=90
molecule="CCN1/C(=C/C=C/C(=C/C2=[N+](CC)c3ccccc3C2(C)C)NCCO)C(C)(C)c2ccccc21 [Dye IIb]" test_value=89
molecule="CCN1/C(=C/C=C/C(=C/C2=[N+](CC)c3ccccc3C2(C)C)N(CCO)CCO)C(C)(C)c2ccccc21 [Dye IIc]" test_value=97
molecule="CCN1/C(=C/C=C/C(N)=C/C2=[N+](CC)c3ccccc3C2(C)C)C(C)(C)c2ccccc21 [Dye IIa]" test_value=78
molecule="CCN1/C(=C/C=C/C(=C/C2=[N+](CC)c3ccccc3C2(C)C)NCc2ccccc2)C(C)(C)c2ccccc21 [Dye IIe]" test_value=88
molecule="CCN1/C(=C/C=C/C(=C/C2=[N+](CC)c3ccccc3C2(C)C)Nc2ccccc2)C(C)(C)c2ccccc21 [Dye IIg]" test_value=77

* * *

test: Absorption and emission spectra of dyes in different solvents; type: physicochemical; conditions: solvent DMSO
PROPERTY_LABEL: λem (nm)

compound="CCN1/C(=C/C=C/C(=C/C2=[N+](CC)c3ccccc3C2(C)C)N(CCO)CCO)C(C)(C)c2ccccc21 [Dye IIc]" test_value=612
compound="CCN1/C(=C/C=C/C(=C/C2=[N+](CC)c3ccccc3C2(C)C)Nc2ccccc2)C(C)(C)c2ccccc21 [Dye IIg]" test_value=646
compound="CCN1/C(=C/C=C/C(=C/C2=[N+](CC)c3ccccc3C2(C)C)NCc2ccccc2)C(C)(C)c2ccccc21 [Dye IIe]" test_value=607
compound="CCN1/C(=C/C=C/C(=C/C2=[N+](CC)c3ccccc3C2(C)C)NCCO)C(C)(C)c2ccccc21 [Dye IIb]" test_value=606
